- System: C. glabrata ATCC90030
- experimental_details: in vitro antifungal activity
- Type: cell-based, Candida glabrata
// values below are reported C. glabrata MFC

For orientation, consider the following solved cases.
>  <compound>
CCCCCCCCOc1c(OC)cc(NC(C)CCCNC(=O)C(N)CCCN)c2nc(C(C)(C)C)ccc12 (centres unmarked)

>  <result>
>20 µg/mL

$$$$
>  <compound>
CCCCCCOc1c(OC)cc(NC(C)CCCNC(=O)C2CCCN2)c2nc(C(C)(C)C)ccc12 (centres unmarked)

>  <result>
10.00 µg/mL

$$$$

With those in mind, consider the next compound.
Give C. glabrata ATCC90030 C. glabrata MFC for CCCCCCCOc1c(OC)cc(NC(C)CCCN)c2nc(C(C)(C)C)ccc12 (centres unmarked)
5.00 µg/mL
